target: EIF2AK3 (PERK) catalytic domain (amino acids 536-1116) (Homo sapiens (Human)); experiment: PERK in vitro activity assay (isolated), TR-FRET kinase assay; details: isolated PERK enzyme, 1.5 μM ATP, GFP-eIF2a substrate; read-out: Biochemical IC50
Sequence (Q9NZJ5 536-1116): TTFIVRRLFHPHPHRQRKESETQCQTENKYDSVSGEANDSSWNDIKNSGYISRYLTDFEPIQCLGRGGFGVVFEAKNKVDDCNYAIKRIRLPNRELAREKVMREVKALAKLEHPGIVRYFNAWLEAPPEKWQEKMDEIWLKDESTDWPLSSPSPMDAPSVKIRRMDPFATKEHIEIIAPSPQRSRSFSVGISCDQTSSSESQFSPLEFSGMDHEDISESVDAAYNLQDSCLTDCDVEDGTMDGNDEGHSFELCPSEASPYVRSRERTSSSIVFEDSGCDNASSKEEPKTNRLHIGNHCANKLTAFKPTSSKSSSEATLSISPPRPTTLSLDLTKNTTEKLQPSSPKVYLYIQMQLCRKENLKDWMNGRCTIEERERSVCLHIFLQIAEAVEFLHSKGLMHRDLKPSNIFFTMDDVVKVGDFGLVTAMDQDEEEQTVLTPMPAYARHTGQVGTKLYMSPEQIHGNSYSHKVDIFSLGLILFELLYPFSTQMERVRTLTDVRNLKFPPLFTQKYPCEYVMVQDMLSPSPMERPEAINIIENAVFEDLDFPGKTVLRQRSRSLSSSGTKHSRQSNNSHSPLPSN
Below, each of the compounds is paired with its reported IC50 value.

Completed entries (count: 3):
- compound: "Cc1cc(NC(=O)C(O)c2ccccc2)ccc1-c1cnc(N)c(C(=O)NC(C)C)c1 (single isomer, unassigned) [Example 1]"
  assay.system: "EIF2AK3 (PERK) catalytic domain (amino acids 536-1116) (Homo sapiens (Human))"
  IC50: "1 to 25 nM"
- compound: "CCc1cc(NC(=O)C(O)c2cccc(C(F)(F)F)c2)ccc1-c1cnc(N)c(C(=O)NC(C)C)c1 (stereo not shown) [Example 111]"
  assay.system: "EIF2AK3 (PERK) catalytic domain (amino acids 536-1116) (Homo sapiens (Human))"
  IC50: "101 to 250 nM"
- compound: "Cc1cc(NC(=O)C(O)c2cc(F)cc(F)c2)ccc1-c1cnc(N)c(C(=O)NC2CNC2)c1 (stereo not shown) [Example 44]"
  assay.system: "EIF2AK3 (PERK) catalytic domain (amino acids 536-1116) (Homo sapiens (Human))"
  IC50: "1 to 25 nM"

Request: // returns reported IC50 for input Cc1cccc(CC(=O)Nc2ccc(-c3cnc(N)c(C(=O)NC(C)C)c3)c(C)c2)n1 [Example 185]
Result: 1 to 25 nM

Request: // returns reported IC50 for input CCc1ccc(CC(=O)Nc2ccc(-c3cnc(N)c(C(=O)NC(C)C)c3)c(C)c2)cc1 [Example 206]
Result: 251 to 500 nM

Request: // returns reported IC50 for input CCc1ccccc1CC(=O)Nc1ccc(-c2cnc(N)c(C(=O)NC(C)C)c2)c(C)c1 [Example 204]
Result: 101 to 250 nM

Request: // returns reported IC50 for input Cc1cc(NC(=O)C(O)c2cc(F)cc(F)c2)ccc1-c1cncc(C(=O)NC(C)C)c1 (stereo not shown) [Example 179]
Result: 101 to 250 nM

This collection of values is drawn from patent US12473296B2.
